Source listed as patent US8691856B2.

target: cloned human glucagon receptor (Homo sapiens (Human))
Sequence (P47871 26-477): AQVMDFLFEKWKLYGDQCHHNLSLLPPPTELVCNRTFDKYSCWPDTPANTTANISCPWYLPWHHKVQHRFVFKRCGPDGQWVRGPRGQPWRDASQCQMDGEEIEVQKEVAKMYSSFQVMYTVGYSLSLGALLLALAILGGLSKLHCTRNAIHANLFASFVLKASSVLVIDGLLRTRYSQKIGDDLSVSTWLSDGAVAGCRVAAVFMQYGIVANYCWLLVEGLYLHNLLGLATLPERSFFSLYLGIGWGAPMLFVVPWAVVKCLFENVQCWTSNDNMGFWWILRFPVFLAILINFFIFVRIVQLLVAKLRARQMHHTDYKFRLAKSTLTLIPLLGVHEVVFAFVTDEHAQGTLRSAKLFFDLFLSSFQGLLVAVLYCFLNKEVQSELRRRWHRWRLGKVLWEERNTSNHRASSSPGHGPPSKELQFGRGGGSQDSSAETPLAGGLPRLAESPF
Value type: pKi
Quick note: pKi means taking -log10 of the concentration in moles per liter.

Challenge: I have this molecule here, Cc1cc(OC(CCC(C)(C)C)c2ccc(C(=O)Nc3nnn[nH]3)cc2)cc(C)c1-c1ccc(C(F)(F)F)cc1 (stereo not shown) , and I need its recorded pKi.
Response given: 7.03
